Where do these numbers come from? They come from patent US9376420B2.

# Assay target: human LXRβ (Homo sapiens)
# Sequence (P55055 222-460 limits assumed): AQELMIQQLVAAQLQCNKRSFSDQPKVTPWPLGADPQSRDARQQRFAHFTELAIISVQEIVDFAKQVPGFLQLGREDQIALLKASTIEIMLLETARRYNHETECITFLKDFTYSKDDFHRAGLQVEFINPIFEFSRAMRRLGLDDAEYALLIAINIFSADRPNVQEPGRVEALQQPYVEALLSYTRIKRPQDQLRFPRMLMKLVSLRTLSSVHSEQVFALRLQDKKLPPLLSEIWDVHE
# Assay: Assay for Transcriptional Activity of LXRβ (GAL4-hLXRβ LBD luciferase reporter, transient transfection)
# Setup conditions: increase of transcriptional activity of LXRβ; HEK293 cells transfected with pFA-hLXRβ/GAL4 and pUAS; 24 hours; average of three independent tests
# Excerpt: […] The following tables 1 and 2 show the EC50 values of the test compounds measured as in the above. […]
Recorded pEC50 for the following compounds
pEC50 is defined as minus the log10 of a concentration measured in mol/L.

For reference, reported pEC50 for Cc1ccc(-c2ccc(C3CC(C(O)(C(F)(F)F)C(F)(F)F)=NN3c3ccccc3Cl)cc2)cc1 (stereo not shown) stands at 6.20

For reference, reported pEC50 for O=S(=O)(N1CC=C(c2ccc(C3CC(C(O)(C(F)(F)F)C(F)(F)F)=NN3c3ccccc3Cl)cc2)CC1)N1CCCC1 (stereo not shown) stands at 6.31

For reference, reported pEC50 for CS(=O)(=O)N1CC=C(c2cccc(C3CC(C(F)(F)C(F)(F)F)=NN3c3ccc(F)cc3F)c2)CC1 (stereo not shown) stands at 5.94

For reference, reported pEC50 for CS(=O)(=O)c1ccc(-c2ccnc(C3CC(C(F)(F)C(F)(F)F)=NN3c3ccc(F)cc3F)c2)cn1 (stereo not shown) stands at 6.27

For reference, reported pEC50 for O=S(=O)(C1CC1)N1CCCN(c2ccc(C3CC(C(O)(C(F)(F)F)C(F)(F)F)=NN3c3ccccc3Cl)cc2)CC1 (stereo not shown) stands at 6.10

For reference, reported pEC50 for COc1ccc(-c2ccc(C3CC(C(O)(C(F)(F)F)C(F)(F)F)=NN3c3ccccc3Cl)cc2F)cc1 (stereo not shown) stands at 5.92

Further cases:
For reference, reported pEC50 for CCS(=O)(=O)N1CCN(c2ccc(C3CC(C(O)(C(F)(F)F)C(F)(F)F)=NN3c3ccccc3Cl)cc2)CC1 (stereo not shown) stands at 5.95
